Cited source: patent US20120121587A1

- TEST_SYSTEM: T1, Human recombinant AXL-FND1 (GST-FND1), from pET-41b(+) (human, UniProt P30530 225-331)
- T1 construct: Expressed in E. coli, purified on Glutathione Sepharose; analyte in all Biacore measurements; GST put first by the usual layout of pET-41; not shown: GST-tag of vector pET-41b(+) (Novagen)
- T1 sequence (looked up): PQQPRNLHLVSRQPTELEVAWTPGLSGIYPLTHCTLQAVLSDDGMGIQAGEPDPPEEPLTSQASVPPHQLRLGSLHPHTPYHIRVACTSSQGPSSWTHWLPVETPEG
- EXPERIMENTAL_PROTOCOL: SPR (Biacore T100): antibody captured on Protein A, GST-FND1 as analyte

| BINDER | Kd [nM] |
| --- | --- |
| H9/L27 (antibody, human IgG1, kappa, V domains shown) VH: QVTLKESGPVLVKPTETLTLTCTVSGFSLSSFGVDWVRQAPGKGLEWMGVIWGGGSTNYNSALKSRLTISKDNSKSQVVLTMTNMDPVDTATYYCAGEGSKYGAWFAYWGQGTLVTVSS VL: DVVMTQSPLSLPVTLGQPASISCRSSRNIVHTNGNTYLEWYQQKPGKAPELLIYKVSNRFSGVPDRFSGSGSGTDFTLKISRVEAEDVGVYYCFQGSHIPFTFGQGTKLEIKR | 3.07 |
